Assay: Ex vivo biodistribution in PC-3 tumor-bearing mice
Set-up: species or system NRG mice
Settings: mouse, PC-3 tumor, intravenous, 100 ug, 1 h blocked: co-injected with 100 µg of [D-Phe6,Leu-NHEt13,des-Met14]Bombesin(6-14), n = 4; read-out: PC-3 tumor uptake
quantity kind: tissue uptake at 1 h

Request: Give the value of tissue uptake at 1 h reported for the following: CC(C)C[C@H](NC(=O)[C@H](Cc1c[nH]cn1)NC(=O)CNC(=O)[C@@H](NC(=O)[C@H](C)NC(=O)[C@H](Cc1c[nH]c2ccccc12)NC(=O)[C@H](CCC(N)=O)NC(=O)[C@@H](Cc1ccccc1)NC(=O)CN1CCC(NC(=O)CN2CCN(CC(=O)O)CCN(CC(=O)O)CCN(CC(=O)O)CC2)CC1)C(C)C)C(=O)N1CSC[C@H]1C(N)=O [[^68Ga]Ga-TacBOMB2, metal not drawn]
Response: 0.92 %ID/g
